B1: HDV Ribozyme (parent)
chain: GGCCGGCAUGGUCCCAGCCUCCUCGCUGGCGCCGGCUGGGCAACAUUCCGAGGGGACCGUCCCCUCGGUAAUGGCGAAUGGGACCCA

Variants of: B1
Assay: self-cleavage, relative activity (ratio to wild type); higher = more cleavage; co-transcriptional
Each entry falls into one class according to its self-cleavage; the ranges are category 1: < 0.09; category 2: ≥ 0.09 and < 0.7; category 3: ≥ 0.7

// known answers, use as guide
>  <SEQ>
GGCCGGCAUGGUCCCAGCCUCCUCGCUGGCGCCGGCUGGGCAACUUUCCGAGGGGACCGUCCCCACGGUAAUGGCGAAUGGGACCCA

>  <LABEL>
category 2

$$$$
>  <SEQ>
GGCGGGCAUGGUCCCAGCCUCCUCGCUGGCGCCGGCUGGGCAGCAUUCCGAGGGGACCGUCCCCUCGGUAAUGGCGAAUGGGACCCA

>  <LABEL>
category 1

$$$$
>  <SEQ>
GGCCGGCAUGGUCCCAGCGUCCUCGCUGGCGCCGGCUGGGCAACAUUCCGAGGGGACCGUCCACUCGGUAAUGGCGAAUGGGACCCA

>  <LABEL>
category 2

$$$$

Exercise: Given GGCCGGCAUGGUCCCAGCCUCCUCGCUGGCGCCGGCUGGGCAACAUUCCGAGGGGACCGUCCCCUUGGUAAUGGCGAAUGGGACACA , name the class its self-cleavage places it in.
Solution: category 3

Exercise: Quick check: band for GGCCGGCAUGGUCCCAGCCUCCUCGCUGGCGCCGGCUGGGCAACAUUCCGAGGGCACCGUCCCCUCGGUAAUGGCGAAAGGGACCCA
Solution: category 2

Exercise: Which category fits this record: GGCCGGCAUGGUCCCAGCCUCCUCGCUGGCGCCGGCUGGGCAACAUUCCGAGGGGACCGGCCCCUCGGUAAUGGCGAAUGGGACCCG
Solution: category 3

Exercise: Textbook exercise: identify the category of the variant given here, GGCCGGCAGGGUCCCAGCCUCCUCGCUGGCGCCGGCUGGGCAACAUUCCGAGGGGACCGCCCCCUCGGUAAUGGCGAAUGGGACCCA , according to its measured value.
Solution: category 3

Exercise: Looking at GGCCGGCAUGGUCCCAGCCUCCUCGCUGGCGCCGGCUGGGCAACAUUCCGGGGGGACCGUCCCCUCGGUUAUGGCGAAUGGGACCCA , which class would you pick?
Solution: category 3

Exercise: In plain terms, what class is GGCCGGCAUGGUCCCAGCCUCCUCGCCGGCGCCGGCUGGGCAACAUUCCGAGGGGACCGUCUCCUCGGUAAUGGCGAAUGGGACCCA ?
Solution: category 3

Exercise: Class (by measured self-cleavage) for GUCCGGCAUGGUCCCAGCCUCCUCGCUGGCGCCGGCUGGGUAACAUUCCGAGGGGACCGUCCCCUCGGUAAUGGCGAAUGGGACCCA
Solution: category 1

Exercise: Please let me know in which category the item GGCCGGCGUGGUCCCAGCCUCCUCGCUGGCGCCGGCUGGGCAACAUUCCGAGGGGACCGUCCCCUCGGUAAUGGCGAAUGGGCCCCA belongs.
Solution: category 2

Exercise: Form: Item = GGCCGGCAUGGUCCCAGCCUCCUCGCUGGCGCCGGCUAGGCAACAUUCCGAGGGGACCGUCCCCUCGGUAAUGACGAAUGGGACCCA ; Class = ?
Solution: category 1
